Test: drug combination growth inhibition, ovarian cancer – cell-based, oncology-focused library, rucaparib conditional, profiling panel (AID 1508598)
Settings: patient-derived ovarian cancer cells, CellTiter-Glo viability, 144 h; at 0.0195 µM; OCI-C5x cells; without rucaparib
Calls of active or inactive are those of the source.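 Rule for the calls: active = normalized viability below 100% at a tested concentration; inactive = the rest.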
Answer with one of the outcomes active, inactive

Answered examples (6):
Input line: Which outcome was entered for the compound C[C@@H]1CN(CC(=O)Nc2ccc3c(c2)Cc2cccc(-c4cc(=O)cc(N5CCOCC5)o4)c2S3)C[C@H](C)O1 in this test?
Output line: inactive

Input line: Which outcome was entered for the compound CC(C)(C)c1cc(NC(=O)Nc2ccc(-c3cn4c(n3)sc3cc(OCCN5CCOCC5)ccc34)cc2)no1 in this test?
Output line: inactive

Input line: Which outcome was entered for the compound CN1CCN(c2ccc(OC(F)(F)F)c(Nc3ncc4c(n3)-c3c(c(C(N)=O)nn3CCO)CC4)c2)CC1 in this test?
Output line: active

Input line: Which outcome was entered for the compound CS(=O)(=O)c1cccc(CNc2nc(Nc3ccc4c(c3)CCC(=O)N4)ncc2C(F)(F)F)c1 in this test?
Output line: inactive

Input line: Which outcome was entered for the compound CN(C)C/C=C/C(=O)Nc1cc2c(Nc3ccc(F)c(Cl)c3)ncnc2cc1O[C@H]1CCOC1 in this test?
Output line: active

Input line: Which outcome was entered for the compound CCC[C@H](NC(=O)/C(C#N)=C/c1cccc(Br)n1)c1ccccc1 in this test?
Output line: inactive

Next:
Input line: Which outcome was entered for the compound Cc1ccc(C(=O)N(CCCN)[C@@H](c2oc3cc(Cl)ccc3c(=O)c2Cc2ccccc2)C(C)C)cc1 in this test?
Output line: active

Input line: Which outcome was entered for the compound CNc1nc(-c2ccc3c(N)n[nH]c3c2)cc(N2C[C@@H](C(=O)NC3CCCCC3)CC[C@H]2C)n1 in this test?
Output line: inactive

---

Test: growth inhibition of DIPG cells – cell-based, MIPE4.0 library, CellTiter-Glo luminescence, qHTS (AID 1347066);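 note: cells exposed to compound for 48 hours before readout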
Details: SU-DIPG-VI viability, CellTiter-Glo ATP luminescence
Results filed as inconclusive are left out. Active and inactive are the calls of the source. The limit is not given here; nearly all actives have AC50 up to about 30 µM.
Answer with one of the outcomes YES for active, NO for inactive

Input line: Which outcome was entered for the molecule c1ccc(CNc2nc(NCc3ccccc3)c3ccccc3n2)cc1 in this test?
Output line: YES

Input line: Which outcome was entered for the molecule C[C@]12CC[C@H](O)CC1=CC[C@@H]1[C@@H]2CC[C@]2(C)C(c3cccnc3)=CC[C@@H]12 in this test?
Output line: NO

Input line: Which outcome was entered for the molecule CC(C)(C)[C@H](NC(=O)c1ccc(N)c(Cl)c1)C(=O)N1CCC[C@H]1C(=O)N[C@H](C#N)CC(=O)O in this test?
Output line: NO

Input line: Which outcome was entered for the molecule CO[C@@H]1C(N(C)C(=O)c2ccccc2)C[C@H]2O[C@]1(C)n1c3ccccc3c3c4c(c5c6ccccc6n2c5c31)C(=O)NC4=O (stereo not given in full) in this test?
Output line: NO

Lab note: next molecule to report on.
Input line: Which outcome was entered for the molecule C[C@H]1[C@H](OC(=O)CCC(=O)O)O[C@@H]2O[C@@]3(C)CC[C@H]4[C@H](C)CC[C@@H]1[C@@]24OO3 in this test?
Output line: NO

---

Test: drug combination toxicity in non-malignant astrocytes – cell-based, BGB or cisplatin IC20 combos, cytotoxicity control for chromothriptic childhood tumor combination screen (AID 1671460);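 note: cells exposed to compounds for 96 hours before viability readout; 0% = vehicle and 100% = killing control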
Settings: Human astrocytes, viability inhibition, drug combinations; measured here: combo with BGB IC20; at 0.5 µM; stronger effect = higher value
Below: a set of entries, each annotated with reported inhibition.
Quick note: give the figure in %, leave out the unit.

Input line: What value of inhibition has been reported for the following molecule? COc1ccc(C(=O)CC2(O)C(=O)Nc3c(Cl)ccc(Cl)c32)cc1 (stereo not given)
Output line: 10.9

Input line: What value of inhibition has been reported for the following molecule? C=C1[C@H](CO)[C@@H](O)C[C@@H]1n1cnc2c(=O)[nH]c(N)nc21
Output line: -16.4

Input line: What value of inhibition has been reported for the following molecule? C[C@]12CCCN1CC1=NNC(=O)c3cc(F)cc4[nH]c2c1c34
Output line: 12

Input line: What value of inhibition has been reported for the following molecule? c1cc(Nc2cc(C3CC3)[nH]n2)nc(Nc2ccc3nc[nH]c3c2)n1
Output line: 33.6

Input line: What value of inhibition has been reported for the following molecule? Nc1ccc(-c2ccc3ncc4ccc(=O)n(-c5cccc(C(F)(F)F)c5)c4c3c2)cn1
Output line: 71
